# Assayed System: UniProt:Q13627
# Assay Remarks: Inhibition of recombinant DYRK1A (unknown origin) using Ser/Thr 18 peptide as substrate incubated for 1 hr in presence of ATP by FRET assay
Test Readout: EC50 (nM)

>>> readout_number("CS(=O)(=O)NCc1cc(F)cc(-c2cncc3[nH]c(-c4n[nH]c5ncc(-c6cncc(CN7CCCCC7)c6)cc45)cc23)c1")
21
>>> readout_number("CCNCc1cncc(-c2cnc3[nH]nc(-c4cc5c(-c6cc(F)cc(CNS(C)(=O)=O)c6)cncc5[nH]4)c3c2)c1")
6
>>> readout_number("CN1CCN(c2cc(Nc3ncc4c(-c5ccc6ncccc6c5)c[nH]c4n3)ccn2)CC1")
1
>>> readout_number("CCCC(=O)Nc1cncc(-c2cnc3[nH]nc(-c4cc5c(-c6cc(F)cc(CNS(C)(=O)=O)c6)cncc5[nH]4)c3c2)c1")
14
>>> readout_number("CN(C)Cc1cncc(-c2cc3c(-c4cc5c(N6CCN(C)CC6)nccc5[nH]4)n[nH]c3cn2)c1")
43
>>> readout_number("c1cncc(-c2ccnc3[nH]c(-c4n[nH]c5ncc(-c6cncc(CN7CCCCC7)c6)cc45)cc23)c1")
15
>>> readout_number("CC(C)NC(=O)c1n[nH]c2ccc(-c3cncc(NC4CCNCC4)n3)cc12")
1
>>> readout_number("CCC(=O)Nc1cncc(-c2cc3c(-c4cc5c(N6CCN(C)CC6)nccc5[nH]4)n[nH]c3cn2)c1")
3
>>> readout_number("O=C(Nc1ccc(OCCN2CCCC2)cc1)c1n[nH]cc1/C=C/c1cccnc1")
4
>>> readout_number("CC(C)Nc1cncc(-c2ccc3[nH]nc(-c4cc5c(-c6cccnc6)cncc5[nH]4)c3c2)c1")
21
>>> readout_number("Cc1ccc(-c2cncc3[nH]c(-c4n[nH]c5ccc(-c6cncc(N)c6)nc45)nc23)s1")
2
>>> readout_number("c1ncc(-c2ccc3[nH]nc(-c4cc5c(-c6ccoc6)nccc5[nH]4)c3c2)cn1")
33
>>> readout_number("O=C(Nc1c[nH]nc1-c1nc2c(-c3cccc(F)c3)cccc2[nH]1)c1cccnc1")
4
>>> readout_number("CN(C)C(=O)Nc1cncc(-c2ccc3[nH]nc(C(=O)Nc4cccnc4)c3c2)c1")
1
>>> readout_number("Cc1cn(-c2cncc3[nH]c(-c4n[nH]c5ccc(-c6cncc(NC(=O)C(C)(C)C)c6)nc45)nc23)cn1")
2
>>> readout_number("COc1cccc(-c2cncc3[nH]c(-c4n[nH]c5ccc(-c6cccnc6)nc45)nc23)c1")
30
>>> readout_number("Cc1ncc(-c2cnc3[nH]nc(-c4nc5c(-c6cccc(F)c6)nccc5[nH]4)c3c2)n1C")
5
>>> readout_number("CN1CCN(c2cncc3[nH]c(-c4n[nH]c5ccc(-c6cncc(CNCc7ccccc7)c6)cc45)cc23)CC1")
7
>>> readout_number("c1cc(-c2ccnc3[nH]c(-c4n[nH]c5ccc(-c6cncc(OCCN7CCCC7)c6)nc45)cc23)ccn1")
28
>>> readout_number("CS(=O)(=O)NCc1cc(F)cc(-c2nccc3[nH]c(-c4n[nH]c5cnc(-c6cncc(CNCC7CCCC7)c6)cc45)cc23)c1")
27
>>> readout_number("O=C(Nc1cc2cc(-c3cnco3)cnc2cn1)C1CCNCC1")
40
>>> readout_number("CN1CCN(Cc2ccc(NC(=O)c3n[nH]c4ccc(-c5cccnc5)cc34)cn2)CC1")
1
>>> readout_number("CC(C)C(=O)Nc1cncc(-c2cc3c(-c4cc5c(-c6ccncc6)nccc5[nH]4)n[nH]c3cn2)c1")
45
>>> readout_number("CCCC(=O)Nc1cncc(-c2ccc3[nH]nc(-c4nc5c(-c6ccsc6)ccnc5[nH]4)c3c2)c1")
17
>>> readout_number("O=C(Nc1ccc(CN2CCCC2)cc1)c1n[nH]cc1/C=C/c1cccnc1")
4
>>> readout_number("Nc1cncc(-c2ccc3[nH]nc(-c4nc5c(-c6ccccc6F)cccc5[nH]4)c3n2)c1")
40
>>> readout_number("CC(C)Nc1cncc(-c2cnc3[nH]nc(-c4cc5c(-c6ccccc6F)nccc5[nH]4)c3c2)c1")
44
>>> readout_number("O=C(CC1CCNCC1)Nc1cncc(-c2ccc3[nH]nc(-c4cc5c(-c6ccoc6)ccnc5[nH]4)c3n2)c1")
64
>>> readout_number("CCC1(N)CN(c2cncc(-c3ccc4[nH]nc(C)c4c3)n2)C1")
54
>>> readout_number("CN1CCN(c2cncc3[nH]c(-c4n[nH]c5ccc(-c6cncc(NC(=O)CC7CCNCC7)c6)cc45)cc23)CC1")
15
>>> readout_number("CC(C)CC(=O)Nc1cncc(-c2ccc3[nH]nc(-c4nc5c(-c6ccc(Cl)s6)cncc5[nH]4)c3n2)c1")
72
>>> readout_number("CCCCC(=O)Nc1cncc(-c2ccc3[nH]nc(-c4cc5c(N6CCCCC6)cccc5[nH]4)c3n2)c1")
40
>>> readout_number("Cc1n[nH]c2ccc(-c3cncc(O[C@H]4CCNCC4(F)F)n3)cc12")
2
>>> readout_number("CN(C)Cc1cncc(-c2ccc3[nH]nc(-c4nc5c(-c6cccc(F)c6)nccc5[nH]4)c3n2)c1")
48
